Assay: label from the status in PepcDB records

>  <sequence-input>
MAHHHHHHMGGPPTIEELKREKIIPHVFPDENVDLTVDMYISFKSGKEVNHGNILDLAGTGSVPRNIKFSEEPPEDYCYILFMIDPDFPSRRRPDGRDYVHWAVSGIKSKELVKGTDKNCITLLPYVGPSIKKGTGLHRISFILSLVKEENKGNVTGVPLYRGEHYITRVKFNNCQSAYNVIQMNDMKIVGFNWCQIEA

>  <protein production>
not failed

$$$$
>  <sequence-input>
HQQQRSVMTEEYKVPDGMVGFIIGRGGEQISRIQQESGCKIQIAPDSGGLPERSCMLTGTPESVQSAKRLLDQIVEKGR

>  <protein production>
not failed

$$$$
>  <sequence-input>
MDIVTNKIVVEKYNFETTMEENQPFENKIELEVHEVEPVDGNVELMAKGKIFKITIPFLLVLENFRIDGRISRIIQLKDFFGQFSDLEAKDVEGLSNPLIDYIKRLTYDVTEIAFDEPGVSLDF

>  <protein production>
failed

$$$$
>  <sequence-input>
MRFFVFLKTLQSRSFCIFQQSFLLFFTSFFIIFVSNLCFISRGYGQNPPSLPAEPPSPQLLLPLDDLIPNDPSSAPAEPNSDSAATILEDFDAVHQSYAQRTEQRKEAEILRLLKELKFCADVEKARKISQQLQRLWSQSGSETIDLLMLWAENAINADNYGLALDYIDNALALLPTYAEGWIRRAWVHIQLSDFKLAMLDLNHALKLEPRNYIAFFELGITMEATERPKLALKAYETALEYYPQMQKVQKRIEELLDKQSPQAL

>  <protein production>
failed

$$$$
